Molecular target: T1, human Claudin 18.2 (CLDN 18.2) expressed on HEK293 / HEK293T cells (human)
T1 construct: Full-length CLDN18.2 on transiently or stably transfected HEK293/HEK293T cells; also called CLD18.2
T1 sequence (chain, as listed by the source limits assumed): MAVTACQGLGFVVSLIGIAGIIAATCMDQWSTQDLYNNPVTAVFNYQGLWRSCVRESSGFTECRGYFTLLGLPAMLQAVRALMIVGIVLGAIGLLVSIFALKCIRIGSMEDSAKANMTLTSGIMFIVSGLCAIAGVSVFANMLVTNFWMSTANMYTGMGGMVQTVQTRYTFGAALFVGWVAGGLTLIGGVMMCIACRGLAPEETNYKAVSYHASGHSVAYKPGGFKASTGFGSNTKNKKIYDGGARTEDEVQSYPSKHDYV
Assay: cell-based ELISA (InCell Elisa) on fixed HEK293_CLDN18.2 cells, y axis RLU; Kd table under the graph, no unit in the table, unit from the x axis log[antibody] ug/ml
quantity measured: Kd

Solved entries:
Anti-CLDN 18.2-5C9oae (humanized antibody h5C9oae) (antibody, human IgG1, V domains shown, the general method uses human IgG1 constant domains) VH: EVQLVESGGGLVQPGGSLRLSCAVSGYTFSMNWVRQAPGKGLEWVAWINMYTGEPTYADDFKGRFTISRDDSKNTLYLQMNSLRAEDTAVYYCARLYRGNSLDYWGQGTLVTVSS VL: DIQMTQSPSSLSASVGDRVTITCKSSQSLLNSGNQKSYLTWYQQKPGKAPKLLIYWASTLESGVPSRFSGSGSGTDYTLTISSLQPEDFATYYCQNAYFFPFTFGQGTKVEIK : 0.184 µg/mL
Anti-CLDN 18.2-5C9oag (humanized antibody h5C9oag) (antibody, human IgG1, V domains shown, the general method uses human IgG1 constant domains) VH: EVQLVESGGGLVQPGGSLRLSCAVSGYTFSMNWVRQAPGKGLEWVAWINMYTGEPTYADDFKGRFTISRDDSKNTLYLQMNSLRAEDTAVYYCARLARGNSIDYWGQGTLVTVSS VL: DIQMTQSPSSLSASVGDRVTITCKSSQSLLNSGNQKSYLTWYQQKPGKAPKLLIYWASTLESGVPSRFSGSGSGTDYTLTISSLQPEDFATYYCQNAYSFPFTFGQGTKVEIK : 0.191 µg/mL
h5C9o Fc mutation (antibody, V domains shown) VH: EVQLVESGGGLVQPGGSLRLSCAVSGYTFSMNWVRQAPGKGLEWVAWINMYTGEPTYADDFKGRFTISRDDSKNTLYLQMNSLRAEDTAVYYCARLYNGNSLDYWGQGTLVTVSS VL: DIQMTQSPSSLSASVGDRVTITCKSSQSLLNSGNQKSYLTWYQQKPGKAPKLLIYWASTLESGVPSRFSGSGSGTDYTLTISSLQPEDFATYYCQNAYSFPFTFGQGTKVEIKR : 0.225 µg/mL

Turning now to a further record.
Give the reported Kd for this binder. Anti-CLDN 18.2-5C9ob (humanized antibody h5C9ob) (antibody, human IgG1, V domains shown, the general method uses human IgG1 constant domains; also called CLDN18.2-h5C9ob) VH: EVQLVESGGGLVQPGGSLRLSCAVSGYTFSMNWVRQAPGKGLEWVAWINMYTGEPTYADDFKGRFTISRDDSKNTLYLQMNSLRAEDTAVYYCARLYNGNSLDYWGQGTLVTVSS VL: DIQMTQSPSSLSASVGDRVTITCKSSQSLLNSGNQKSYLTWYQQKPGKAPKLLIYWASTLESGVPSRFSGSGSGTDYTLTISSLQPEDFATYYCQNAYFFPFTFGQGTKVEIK
0.206 µg/mL
